# target entity: CYP2C9 (Homo sapiens)
# Sequence (P11712 whole entry): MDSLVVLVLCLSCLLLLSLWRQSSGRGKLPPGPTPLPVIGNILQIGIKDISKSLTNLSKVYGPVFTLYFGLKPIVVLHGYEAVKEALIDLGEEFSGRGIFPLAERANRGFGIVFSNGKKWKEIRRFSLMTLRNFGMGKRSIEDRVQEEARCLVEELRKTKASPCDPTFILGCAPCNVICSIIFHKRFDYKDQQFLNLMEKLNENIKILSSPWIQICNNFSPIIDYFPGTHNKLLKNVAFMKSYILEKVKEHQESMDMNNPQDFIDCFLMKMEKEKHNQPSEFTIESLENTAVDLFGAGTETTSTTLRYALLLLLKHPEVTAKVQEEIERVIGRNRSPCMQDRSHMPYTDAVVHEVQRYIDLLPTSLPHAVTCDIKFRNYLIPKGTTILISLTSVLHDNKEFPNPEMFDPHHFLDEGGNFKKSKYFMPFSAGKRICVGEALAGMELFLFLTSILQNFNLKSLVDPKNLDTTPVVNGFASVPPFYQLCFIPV
# experimental protocol: biochemical
pIC50: −log10 of the molar value.

{"columns": ["smiles str", "pIC50"],
 "data": [
  ["Cc1ccnc(NC(=O)c2ccsc2NC(=O)c2ccn3cnnc3c2)n1", "< 4.30"]
]}
